- target.desc: human activated kallikrein enzyme (Homo sapiens, UniProt P03952)
- Sequence (P03952 391-638 limits assumed): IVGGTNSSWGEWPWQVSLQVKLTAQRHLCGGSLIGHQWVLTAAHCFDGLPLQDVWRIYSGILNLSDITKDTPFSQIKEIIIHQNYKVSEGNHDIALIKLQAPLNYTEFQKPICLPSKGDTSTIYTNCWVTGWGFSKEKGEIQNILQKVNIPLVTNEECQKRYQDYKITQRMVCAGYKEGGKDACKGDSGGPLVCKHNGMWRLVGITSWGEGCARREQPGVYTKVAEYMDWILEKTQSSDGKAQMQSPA
- Sequence (P03952 20-390 partner limits assumed): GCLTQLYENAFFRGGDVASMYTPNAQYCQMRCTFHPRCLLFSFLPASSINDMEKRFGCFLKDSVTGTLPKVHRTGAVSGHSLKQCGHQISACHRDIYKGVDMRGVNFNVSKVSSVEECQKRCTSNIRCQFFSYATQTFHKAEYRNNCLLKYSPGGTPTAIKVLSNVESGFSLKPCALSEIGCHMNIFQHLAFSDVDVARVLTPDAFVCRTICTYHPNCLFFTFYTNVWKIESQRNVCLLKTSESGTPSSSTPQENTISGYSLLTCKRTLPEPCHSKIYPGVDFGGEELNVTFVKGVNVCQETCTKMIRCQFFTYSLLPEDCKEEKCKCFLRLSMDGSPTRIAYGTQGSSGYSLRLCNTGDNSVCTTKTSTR
- assay.method.text: Inhibition of human activated plasma kallikrein, fluorogenic PFR-AMC substrate, 500 pM enzyme format
- Type: biochemical
- measurement.setup: 500 pM activated kallikrein; 300 μM PFR-AMC; 30 min preincubation; 10 min room temperature; pH 7.5; read-out: Primary Dose Response Assay: Average EC50
Measured EC50 values are reported for all entries that follow.

Some solved cases for reference:
{"compound": "Cc1ccc2nc(Cn3cc(C(=O)NCc4c(C)cc5c(N)nccc5c4C)cn3)nn2c1 [Example 15]", "EC50": "< 1 nM"}
{"compound": "Cc1cc2c(N)nccc2c(C)c1CNC(=O)c1cnn(Cc2cn3c(C4CC4)cccc3n2)c1 [Example 137]", "EC50": "1 to 10 nM"}

Please provide the recorded EC50 for CCOC(=O)N(C)c1ccc(Cn2cc(C(=O)NCc3c(C)cc4c(N)nccc4c3C)cn2)cc1 [Example 25] , tested on human activated kallikrein enzyme (Homo sapiens, UniProt P03952).
1 to 10 nM

I'm curious: which EC50 was measured for Cc1cc2c(N)nccc2c(C)c1CNc1cc(NCc2ccc(C(F)(F)n3cccn3)cc2)ncn1 [Example 382] tested on human activated kallikrein enzyme (Homo sapiens, UniProt P03952)?
1 to 10 nM
